Readings of inhibition at 33 µM for the listed compounds
system.under.test: HCV-NS5b (Hepatitis C virus genotype 1b, UniProt Q9WMX2)
Construct: (His)6 (C); made in house; host or cells: XL-1 cells (E. coli), IPTG-inducible plasmid, nickel-NTA purification
protocol: HCV-NS5b enzyme assay (incorporation of radiolabeled UTP)
Type: biochemical
measurement.parameters: enzyme inhibition at compound concentration of 33 uM
Give the number; % is assumed, so skip it.

[in] Reported inhibition at 33 µM for Cc1cc(-c2ccc3cc(-c4nc5cc(C(=O)O)ccc5n4C4CCCCC4)ccc3n2)c(O)c([N+](=O)[O-])c1 : what is it?
[out] 104

New cases:
[in] // inhibition at 33 µM lookup, key: COc1ccc(-c2cccs2)c(-c2ccc3cc(-c4nc5cc(C(=O)O)ccc5n4C4CCCCC4)ccc3n2)c1
[out] 101

[in] Return reported inhibition at 33 µM; argument: O=C(O)c1ccc2c(c1)nc(-c1ccc3cc(-c4ccccc4)cnc3c1)n2C1CCCCC1
[out] 94.9

[in] Value lookup for inhibition at 33 µM; key = CCOc1cc(-c2ccccc2)nc2ccc(-c3nc4cc(C(=O)O)ccc4n3C3CCCCC3)cc12
[out] 94.8

[in] Query (compound): O=C(O)c1ccc2c(c1)nc(-c1ccc3nc(-c4cc([N+](=O)[O-])ccc4-c4ccc(Cl)cc4)ccc3c1)n2C1CCCCC1 ; field requested: inhibition at 33 µM
[out] 99.2

[in] What value of inhibition at 33 µM has been reported for the following compound? COc1ccc(-c2ccc(C)cc2)c(-c2ccc3cc(-c4nc5cc(C(=O)O)ccc5n4C4CCCCC4)ccc3n2)c1
[out] 98.7

[in] Which inhibition at 33 µM is listed for O=C(O)c1ccc2c(c1)nc(-c1ccc3nc(-c4ccc(F)cc4)c(-c4ccc(F)cc4)nc3c1)n2C1CCCCC1 ?
[out] 97.9

[in] Item O=C(O)c1ccc2c(c1)nc(-c1ccc3nc(-c4cc5c(cc4-c4ccc(Cl)cc4)OCCCO5)ccc3c1)n2C1CCCCC1 has what recorded inhibition at 33 µM?
[out] 102

* * *

system.under.test: HCV-NS5b (Hepatitis C virus genotype 1b)
Construct: (His)6 (C); made in house; host or cells: XL-1 cells (E. coli), IPTG-inducible plasmid, nickel-NTA purification
protocol: HCV-NS5b enzyme assay (incorporation of radiolabeled UTP)
Type: biochemical
measurement.parameters: enzyme inhibition at compound concentration of 33 uM
observation.type: inhibition at 33 µM (%)
Give a bare numeral; the unit % is implied.

[in] Hello, I am looking for reported inhibition at 33 µM with HCV-NS5b (Hepatitis C virus genotype 1b) for O=C(O)c1ccc2c(c1)nc(-c1ccc3nc(-c4ccccc4-c4ccncc4)ccc3c1)n2C1CCCCC1 . Could you help?
[out] 96.2

[in] Field: inhibition at 33 µM (HCV-NS5b (Hepatitis C virus genotype 1b)). Entry: O=C(O)c1ccc2c(c1)nc(-c1ccc3nc(-c4ccc(Cl)c(Cl)c4)ccc3c1)n2C1CCCCC1
[out] 98.9

[in] Request - read-out inhibition at 33 µM | tested on HCV-NS5b (Hepatitis C virus genotype 1b) | molecule O=C(O)c1ccc2c(c1)nc(-c1ccc3c(c1)CCC(c1ccccc1)N3)n2C1CCCCC1 (stereo not shown)
[out] 99.2

[in] Give the reported inhibition at 33 µM for CCOc1ccc([N+](=O)[O-])cc1-c1ccc2cc(-c3nc4cc(C(=O)O)ccc4n3C3CCCCC3)ccc2n1 (system: HCV-NS5b (Hepatitis C virus genotype 1b)).
[out] 102
